# Procedure details: Tmax in Sprague-Dawley rat at 3 mg/kg, po
# Assay type: ADME, organism-based
# Test settings: in vivo
Assay endpoint: Tmax (min)

a = Cc1c(CC(C)C)nc(-c2ccc(Cl)o2)n1-c1c(Cl)ccc(N2CC(C(=O)O)C2)c1Cl (single isomer, unassigned; atropisomer)
b = Cc1c(C(F)(F)F)nc(-c2ccc(Cl)o2)n1-c1c(Cl)ccc(N2CC(C(=O)O)C2)c1Cl (single isomer, unassigned; atropisomer)
Which of the two items, a and b , has the greater recorded Tmax? // caller expects the label of the chosen entry
b

====

# Procedure details: Equilibrium aqueous solubility of the compound in pH 6.8 solution
# Format: physicochemical
# Test settings: aqueous pH 6.8 solution
Assay endpoint: solubility thermodynamic

Worked examples, 3 compounds total:
Cc1c(CC(C)C)nc(-c2ccc(Cl)o2)n1-c1c(Cl)ccc(N2CC(C(=O)O)C2)c1Cl (single isomer, unassigned; atropisomer); 690 µM
Cc1c(C(F)(F)F)nc(-c2ccc(Cl)o2)n1-c1c(Cl)ccc(N2CC(c3nnn[nH]3)C2)c1Cl; > 1000 µM
Cc1c(C(F)(F)F)nc(-c2ccc(Cl)o2)n1-c1c(Cl)ccc(N2CC(C(=O)O)C2)c1Cl (single isomer, unassigned; atropisomer); > 1000 µM

As a next step, examine the compound that follows.
The recorded solubility thermodynamic for N#Cc1cccc(C#N)c1-n1cc(C2CC2)nc1-c1cnco1 is > 1000 µM

====

# Tgt: Nuclear receptor ROR-alpha (Homo sapiens, UniProt P35398)
# Sequence (P35398 whole entry): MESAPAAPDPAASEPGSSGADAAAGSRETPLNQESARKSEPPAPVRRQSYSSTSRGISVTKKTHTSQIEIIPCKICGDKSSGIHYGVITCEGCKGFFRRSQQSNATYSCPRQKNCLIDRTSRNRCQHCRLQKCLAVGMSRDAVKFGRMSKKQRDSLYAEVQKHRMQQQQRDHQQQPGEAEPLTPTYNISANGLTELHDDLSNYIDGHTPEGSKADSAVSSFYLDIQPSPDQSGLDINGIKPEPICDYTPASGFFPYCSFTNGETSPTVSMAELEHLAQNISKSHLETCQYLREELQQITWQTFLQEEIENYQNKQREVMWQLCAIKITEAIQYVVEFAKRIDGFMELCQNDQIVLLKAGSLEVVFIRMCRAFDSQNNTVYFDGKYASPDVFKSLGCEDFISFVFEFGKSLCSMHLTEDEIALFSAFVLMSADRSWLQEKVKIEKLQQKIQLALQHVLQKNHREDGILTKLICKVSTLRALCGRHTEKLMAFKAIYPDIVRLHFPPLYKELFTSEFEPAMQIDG
# Procedure details: Inhibition of Gal4-tagged RORalpha LBD (unknown origin) by cell based luciferase reporter gene assay
pIC50: −log10 of the molar value.
Assay endpoint: pIC50

The recorded pIC50 for Cc1c(C2(C(F)(F)F)CC2)nc(C2CC2)n1-c1c(Cl)ccc(N2CC3(CC(C(=O)O)C3)C2)c1Cl (single isomer, unassigned; atropisomer) is < 5.00
